target: Human recombinant MMP9 (Homo sapiens); test: MMP9 (Gelatinase B) inhibition, 14C gelatin release; conditions: 37° C., 16 hours; read-out: MMP-9 inhibitory activity, IC50
Sequence (P14780 94-707): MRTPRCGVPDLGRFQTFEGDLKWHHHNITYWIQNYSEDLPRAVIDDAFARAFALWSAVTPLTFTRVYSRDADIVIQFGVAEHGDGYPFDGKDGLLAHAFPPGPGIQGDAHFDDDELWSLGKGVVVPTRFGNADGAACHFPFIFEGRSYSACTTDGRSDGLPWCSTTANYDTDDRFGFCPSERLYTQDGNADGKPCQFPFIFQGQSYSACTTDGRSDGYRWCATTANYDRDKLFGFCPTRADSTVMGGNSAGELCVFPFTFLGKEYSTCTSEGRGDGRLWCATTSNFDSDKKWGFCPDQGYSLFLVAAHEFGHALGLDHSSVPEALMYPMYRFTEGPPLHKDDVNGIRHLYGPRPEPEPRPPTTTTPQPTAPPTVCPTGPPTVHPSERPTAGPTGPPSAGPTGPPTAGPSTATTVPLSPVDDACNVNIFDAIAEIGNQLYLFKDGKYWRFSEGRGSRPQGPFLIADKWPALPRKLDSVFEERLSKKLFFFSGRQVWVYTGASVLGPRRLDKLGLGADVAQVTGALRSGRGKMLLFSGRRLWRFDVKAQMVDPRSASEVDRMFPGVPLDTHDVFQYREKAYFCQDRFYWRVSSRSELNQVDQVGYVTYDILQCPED
pIC50: −log10 of the molar value.
Please note: TRUE applies when pIC50 is 4 or greater, and FALSE applies otherwise.

| compound | tested on | assigned label |
| --- | --- | --- |
| CN(C)c1ccc(O)c2c1CC1CC3CC(O)=C(C(N)=O)C(=O)C3(O)C(O)=C1C2=O (stereo not shown) [Compound 41] | Human recombinant MMP9 (Homo sapiens) | FALSE |
| CC1c2cccc(O)c2C(=O)C2=C(O)C3(O)C(=O)C(C(N)=O)=C(O)CC3C(O)C21 (stereo not shown) [Compound 34] | Human recombinant MMP9 (Homo sapiens) | FALSE |
| CC1c2c(N)cc(C(C)(C)C)c(O)c2C(=O)C2=C(O)C3(O)C(=O)C(C(N)=O)=C(O)C(N(C)C)C3C(O)C21 (stereo not shown) [Compound 44] | Human recombinant MMP9 (Homo sapiens) | FALSE |
| CC(=O)Nc1cc(N=[N+]=[N-])c(O)c2c1C(C)C1C(=C(O)C3(O)C(=O)C(C(N)=O)=C(O)C(N(C)C)C3C1O)C2=O (stereo not shown) [Compound 42] | Human recombinant MMP9 (Homo sapiens) | FALSE |
| CCCCCCN(CCCCCC)c1ccc(O)c2c1C(C)C1C(=C(O)C3(O)C(=O)C(C(N)=O)=C(O)C(N(C)C)C3C1O)C2=O (stereo not shown) [Compound 18] | Human recombinant MMP9 (Homo sapiens) | FALSE |
| CN(C)c1cc(N)c(O)c2c1CC1CC3C(N(C)C)C(O)=C(C(N)=O)C(=O)C3(O)C(O)=C1C2=O (stereo not shown) [Compound 7] | Human recombinant MMP9 (Homo sapiens) | TRUE |
